tested on: TCDD-induced MCF-7 cells; assay: TCDD-induced MCF-7 cell line cytotoxicity assay, MTT; type: cell-based, human; conditions: Homo sapiens, MCF7, MCF-7 cells induced with 10 nM TCDD for 24 hours, 96 hours, MTT
Kindly supply the reported pIC50 values for the records listed here.
Scale for pIC50: -log10 of concentration given in mol/L; no unit attached.

Req: Quick check: pIC50 of CCCCOc1ccc(/C=C/C(=O)c2cc(OC)cc(OC)c2)cc1 [DMU-176] ?
Resp: 5.96

Req: Quick check: pIC50 of CCCOc1ccc(/C=C/C(=O)c2ccc(OC)cc2OC)cc1 [DMU-408] ?
Resp: 5.89

Req: Quick check: pIC50 of COc1cc(OC)cc(C(=O)/C=C/c2ccc(OC(C)C)cc2)c1 [DMU-401] ?
Resp: 6.10
